Data credit: PubChem BioAssay (NCI)

tested on: SNB-75 CNS; experiment: NCI-60 one-dose screen, 48 h (100 = growth as untreated, 0 = no growth, -100 = all killed); conditions: 10 µM
About 83,000 compounds went through this panel and 20% of them were active in at least one assay; those are over-represented in the sample as a whole. Activity calls are given as the source filed them. Rule for the calls: active = growth percent below 10; inactive = the rest.
ASSAY_ENDPOINT: growth

| MOLECULE | growth |
| --- | --- |
| COc1ccc(N=Nc2cc(OC)c(OC)c(OC)c2)cc1 | 78.7% (inactive) |
| COc1cc2cc(Oc3ccc(NC(=O)c4ccccc4)cc3)c(C)nc2cc1OC | 54.1% (inactive) |
| N=C1S/C(=C/c2ccc(-c3ccc4c(c3)C(=O)NC4=O)o2)C(=O)N1c1ccc(Br)cc1 | -3.31% (active) |
| COc1cc(C(=O)N2CCN(c3cc4c(cc3F)c(=O)c(C(=O)NO)cn4C3CC3)CC2)cc(OC)c1OC | 96.3% (inactive) |
| NC(N)=N/N=C(\c1ccccc1)C(O)c1ccccc1 (stereo not drawn) | 93.7% (inactive) |
| Nc1ccn(Cc2nnc(CCC(=O)c3nc4ccccc4[nH]3)o2)c(=O)n1 | 67.5% (inactive) |

Would you mind giving growth for every molecule in the list below?
1. C=CCN(CC=C)C(=O)[C@H](CC)[C@@H]1CC[C@@H](C)[C@@H]([C@H](C)[C@@H](O)[C@@H](C)C(=O)[C@H](CC)C2O[C@]3(C=C[C@@H](O)[C@]4(CC[C@@](C)([C@H]5CC[C@](O)(CC)[C@H](C)O5)O4)O3)[C@H](C)C[C@@H]2C)O1 (stereo partly drawn)
2. Oc1ccc(/C=N/N=C2c3ccccc3-c3ccccc32)c(O)c1

-7.45% (active)
73.1% (inactive)

###

tested on: HCC-2998 colon; test: NCI-60 one-dose screen, 48 h (100 = growth as untreated, 0 = no growth, -100 = all killed); conditions: 10 µM
The panel holds about 83,000 compounds, 20% with a hit somewhere; the sample as a whole holds those more often.
ASSAY_ENDPOINT: growth (%)
Numbers only, in %.

| COMPOUND | ASSAY_ENDPOINT | SCALE_UNIT | RECORDED_NUMBER |
| --- | --- | --- | --- |
| Cc1cc(O)ccc1C1=NN(c2ccc(S(C)(=O)=O)cc2)C(=O)CC1 | growth | % | 78.6 |
| COc1cc2c3c(n(C4CCNCC4)c(=O)c2cc1OC)-c1cc2c(cc1C3=O)OCO2 | growth | % | -95 |
| COc1cc(-c2nn(-c3ccc(NC(=O)NCCNS(=O)(=O)c4ccc(F)cc4)cc3)cc2-c2ccncc2)ccc1Cl | growth | % | 6.84 |
| COc1ccc(/C=C2\CCCC3=C2N=C2SC(C)=CN2C3c2ccc(OC)cc2)cc1 (stereo not given) | growth | % | 111 |

Below: the item to evaluate.
Specify measured growth for `CCOc1ccccc1/C=N/N1CCCCCC1` .
93.5

###

Tested on: SNB-19 CNS
Test: NCI-60 one-dose screen, 48 h
Conditions: 10 µM
Method: Growth inhibition of the SNB-19 human tumor cell line is measured as a screen for anti-cancer activity. Cells are grown in 96 well plates and exposed to the test compound for 48 hours. Compounds are tested at a single concentration, which is 10^-5 M for most compounds. The reported endpoint is percent growth (GI% or GIPRCNT), where numbers from 0 - 100% represent growth inhibition, and numbers from -100% - 0 represent cell death. For example, a value of 40 represents 60% growth inhibition. […]
This is part of a sample that, as a whole, favours compounds with a hit. Of some 83,000 tested, about 20% had one in any assay. Active and inactive are the calls of the source. How the source made its calls: active means growth percent below 10; inactive means the rest.
A correct response names exactly one class from active, inactive

Example cases with answers are listed next.
| MOLECULE | CLASSIFICATION |
| --- | --- |
| COc1ccc(-c2cc(-c3ccc(Cl)cc3)nc(SCCCCCCC(=O)NO)n2)cc1OC | inactive |
| O=C1/C=C/[C@@H](O)[C@@H]2C[C@@H](O)C[C@H]2/C=C/CCC[C@H](CCc2ccc(C(F)(F)F)cc2)O1 | inactive |
| COc1ccc2nc3cc(Cl)ccc3c(Nc3cc(CN4CCCC4)c(O)c(CN4CCCC4)c3)c2n1 | inactive |
| Cc1cn(-c2cc(F)cc(NC(=O)c3ccc(C)c(Nc4nccc(-c5cccnc5)n4)c3)c2)cn1 | active |
| CC(C)c1cc(N=O)cc(C(C)C)c1O | inactive |
| CNS(=O)(=O)Oc1ccc(-c2ccc3occc3c2)cc1 | inactive |
| Cc1cc(CCNC=O)c(C)c2c1sc1ccccc12 | inactive |
| CNC(=O)c1c(I)c(NC(C)=O)c(I)c(C(=O)O)c1I | inactive |
| CCN1C(=O)CC(SC2CC(=O)N(CC)C2=O)C1=O (stereo not given) | inactive |

We now examine a further molecule.
Which outcome was assigned to Cc1cc(CC(C)CC(C)(C)C)n(O)c(=O)c1 (stereo not given) (tested in a mixture with another compound) in this test?
inactive

###

system: OVCAR-8 ovarian; test: NCI-60 one-dose screen, 48 h; settings: 10 µM
The panel holds about 83,000 compounds, 20% with a hit somewhere; the sample as a whole holds those more often. Calls of active or inactive are those of the source. The calls were made as follows: active = growth percent below 10; inactive = the rest.
One label from this list, please: T for active, F for inactive

Below, 5 compounds whose answers are already recorded.
| COMPOUND | CLASSIFICATION |
| --- | --- |
| COc1ccc(Cl)cc1Nc1nc(C(F)(F)F)ccc1C(=O)N/N=C/c1ccc(Cl)cc1 | F |
| Nc1ncnc2c1ncn2C1(CO)OCC(O)C(O)C1O (centres undefined) | F |
| COc1ccccc1N1CCCSC1=Nc1ccccc1 | F |
| CC(=O)COc1ccc(Cl)cc1Cl | F |
| CS(=O)(=O)c1nccc(-c2c(-c3cccc(OCCc4ccccc4)c3)nc3sccn23)n1 | F |

// outcome(item) with item = `CC1(C)N=C(N)N=C(N)N1c1cccc(C#N)c1`
F

I would be grateful if you could indicate the recorded call for `COc1cc(C(=O)/C(C)=C/c2c[nH]c3ccccc23)cc(OC)c1OC` .
F

How was `CCOc1ccccc1/C=N\N=C(\N)N/N=C/c1ccccc1OCC` classified in this test?
F

Which outcome was entered for the compound `CC(C)(C)c1nn(-c2ccccc2)c2c1CC1(CN2Cc2ccc(Cl)cc2)C(=O)c2ccccc2C1=O` in this test?
F

What outcome does the record of this test show for COc1ccc(/C(=N\N)C(=O)c2ccccc2)cc1 (tested in a mixture with another compound) ?
F

Hi team, can someone confirm the assay call for C=C1CCC2(C#N)[C@H]3[C@H](CC[C@@H]2C)[C@@H](C)C[C@@H](CC(C)(C)NC(=O)CN2CCC2=O)[C@H]13 (some centres undefined) ?
F

Hi, sorry to bother you, what did the test record for `COc1cc2cc(Oc3ccc(NC(=O)Nc4ccc(C(F)(F)F)cc4)cc3)c(C)nc2cc1OC` ?
F

// outcome(item) with item = `O=C(CCl)Oc1ccc(OC(=O)CCl)cc1`
F

Record lookup: outcome of this test for `COc1cc(-c2nn(-c3cccc(NC(=O)NCCNC(=O)c4ccccc4)c3)cc2-c2ccncc2)ccc1Cl` ?
T

Tell me the recorded outcome of this test for COC(=O)C1(O)NC(=C(C#N)C#N)C(C#N)=C1C(=O)c1ccc(OC)c(OC)c1 (centres undefined) .
F

Hi, do you know how `Clc1ccc(C2=NN=C3C(Cc4ccccc4)=Nc4ccccc4N3C2)cc1` came out in this test?
F

Fill in: this test's call for `O=S(=O)(Oc1ccc(-c2ccc3sccc3c2)cc1)c1ccc(F)cc1` is ___
F

Assay outcome for `CCN(CC)CCCOc1cccc2c1C(=O)c1cccc(OCCCN(CC)CC)c1C2=O` : what was it?
F

Hi, do you know how `COc1cc(C(=O)/C=C/c2c[nH]c3ccccc23)cc(OC)c1OC` came out in this test?
F

Which outcome did this test record for the compound `CCCc1cn(CC(=O)Nc2nc3ccccc3s2)nn1` ?
F

###

System: RXF 393 renal
Assay: NCI-60 one-dose screen, 48 h
Settings: 10 µM
Experimental: Cells are grown in 96 well plates and exposed to the test compound for 48 hours. Compounds are tested at a single concentration, which is 10^-5 M for most compounds. The reported endpoint is percent growth (GI% or GIPRCNT), where numbers from 0 - 100% represent growth inhibition, and numbers from -100% - 0 represent cell death. For example, a value of 40 represents 60% growth inhibition. A value of 0 means no net growth occurred over the course of the experiment. […]
About 83,000 compounds went through this panel and 20% of them were active in at least one assay; those are over-represented in the sample as a whole. Calls of active or inactive are those of the source. How the source made its calls: active means growth percent below 10; inactive means the rest.
Tick one outcome: active, inactive

# count of solved cases: 3
| MOLECULE | CLASSIFICATION |
| --- | --- |
| CN1CCN(CCC(=O)Nc2cccc(-n3cc(-c4ccncc4)c(-c4ccc(Cl)c(O)c4)n3)c2)CC1 | inactive |
| N#Cc1ccc(C(=O)CSc2nccc(Nc3ccc(C(=O)O)cc3)n2)cc1 | inactive |
| CCOC(=O)c1cc(C(=O)c2ccc(OC)c(OC)c2)n2c1ccc1ccc3cccnc3c12 | inactive |

Please share the test call associated with `Cc1ccc(Cl)cc1NC(=O)CCl` .
inactive

Status in this test for `COc1cc2cc(Oc3ccc(NC(=O)c4ccc(Cl)c(C(F)(F)F)c4)cc3)c(C)nc2cc1OC` ?
inactive

// param item: `Nc1cc(Br)c(-c2nn3c(CCC(=O)c4nc5ccccc5[nH]4)nnc3s2)c(Br)c1` ; yields the recorded call
inactive

Which outcome did this test record for the molecule `CCOC(=O)c1cc(C(=O)c2ccc(Cl)cc2)n2ccc(-c3cc[n+](CC(=O)c4ccc(OC)cc4)cc3)cc12` ?
inactive

Recorded test outcome, item `O=C(Nc1ccccc1)Nc1ncnc2c1ncn2-c1ccccc1`
inactive

Look up the recorded call for CCCCN(CCCC)C(=O)[C@H](CC)[C@@H]1CC[C@@H](C)[C@@H]([C@H](C)[C@@H](O)[C@@H](C)C(=O)[C@H](CC)C2O[C@]3(C=CC(=O)[C@]4(CC[C@@](C)([C@H]5CC[C@](O)(CC)[C@H](C)O5)O4)O3)[C@H](C)C[C@@H]2C)O1 (some centres undefined) in this test.
inactive

Given `COc1ccc(-c2cc(-c3ccc(Cl)cc3)nc(SCCCC(=O)NO)n2)cc1OC` , state the outcome it received in this test.
active

// outcome(item) with item = `Cc1n[nH]c(C)c1N=Nc1cccc2c1C(=O)c1ccccc1C2=O`
inactive

What was the test verdict on `Oc1cccc(-c2nc3sccn3c2-c2ccncn2)c1` ?
inactive

Hi, do you know how `O[C@@H]1CO[C@H]2[C@@H]1OC[C@@H]2O` came out in this test?
inactive

Hi, sorry to bother you, what did the test record for `CC(C)(C)c1nn(-c2ccccc2)c2c1CC1(CN2Cc2ccc(Cl)cc2)C(=O)c2ccccc2C1=O` ?
inactive

Write down the call the test reported for this molecule. Item: `Cc1c2cnccc2c(C)c2c1oc1ccccc12`
inactive

State the result this test recorded for `Cc1ccc(-n2c(C)nn3c(=O)c4c5c(sc4nc23)CN(C)CC5)cc1` .
inactive

Recorded test outcome, item `CC(C)(C)OC(=O)CN1CCc2c(sc3ncnc(N/N=C/c4cccc5ccccc45)c23)C1`
inactive

Outcome? `CCN(CCCNc1cc2c(c(N)c1S(=O)(=O)O)C(=O)c1ccccc1C2=O)c1ccccc1`
inactive

How did this test come out for `Cc1noc(C)c1CSc1ccccc1C(=O)N1CCN(c2cccc(C(F)(F)F)c2)CC1` ?
inactive
